target: NTH-RNase E D346N (Escherichia coli (K12, P21513-1 in …, UniProt P21513 1-529, D346N)); experiment: EMSA; 15 mM CaCl2; 25 mM bis-Tris propane pH 8.3, 100 mM KCl, 15 mM CaCl2, 0.1% (v/v) Triton X-100, 1 mM DTT, 20% (v/v) glycerol, 37 C 20 min; 1% agarose gel in 1x TBE; details: protein: recombinant; tags: N-terminal oligohistidine; chain copies: 4; single-stranded
measuredEndpoint: pKd
# pKd: negative log10 of molar concentration; output just the value

Bench note: what pKd did GAGACAGUAUUUG (ssRNA, 5'-monophosphate) [5'-monophosphorylated LU13] show?
7.25
